From: paper PMC4118869

MEASURED ON: phage displayed HA gene fragment P66-I282 (Influenza A virus A/California/07/2009 …, UniProt C3W5X2)
METHOD DESCRIPTION: ELISA
PROTOCOL CONDITIONS: both partners purified
MEASUREMENT TYPE: binding result

>>> value_measured("R1a-C5 (VHH, source: E. coli WK6 periplasm, purified (Talon IMAC, Superdex 75 SEC)) VHH: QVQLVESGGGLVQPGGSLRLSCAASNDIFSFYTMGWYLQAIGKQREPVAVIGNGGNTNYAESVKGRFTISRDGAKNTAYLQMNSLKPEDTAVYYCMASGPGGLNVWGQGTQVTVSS")
"binds"
>>> value_measured("R1a-F4 (VHH, source: E. coli WK6 periplasm, purified (Talon IMAC, Superdex 75 SEC)) VHH: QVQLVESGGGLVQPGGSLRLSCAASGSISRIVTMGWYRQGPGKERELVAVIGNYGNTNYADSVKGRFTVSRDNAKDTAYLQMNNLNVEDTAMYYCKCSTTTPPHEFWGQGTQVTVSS")
"binds"
